- TARGET: UGT2B15 (Homo sapiens)
- Sequence (P54855 24-530): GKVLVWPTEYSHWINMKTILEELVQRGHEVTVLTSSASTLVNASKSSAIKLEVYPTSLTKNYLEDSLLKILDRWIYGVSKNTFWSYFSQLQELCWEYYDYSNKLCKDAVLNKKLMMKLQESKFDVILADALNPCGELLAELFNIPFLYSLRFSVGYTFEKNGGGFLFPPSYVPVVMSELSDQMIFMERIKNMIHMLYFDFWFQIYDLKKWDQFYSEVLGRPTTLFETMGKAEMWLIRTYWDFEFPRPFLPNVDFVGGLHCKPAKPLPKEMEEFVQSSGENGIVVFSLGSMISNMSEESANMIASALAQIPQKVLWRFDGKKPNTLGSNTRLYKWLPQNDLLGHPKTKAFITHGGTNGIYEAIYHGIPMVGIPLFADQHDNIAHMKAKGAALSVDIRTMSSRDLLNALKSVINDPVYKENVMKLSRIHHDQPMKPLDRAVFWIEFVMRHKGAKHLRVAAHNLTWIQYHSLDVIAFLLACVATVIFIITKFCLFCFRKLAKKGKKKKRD
- ASSAY_REMARKS: Inhibition of UGT2B15-catalyzed 4-trifluoromethyl-7-hydroxycoumarin glucuronidation, human recombinant UGT
ASSAY_ENDPOINT: IC50

Tell me the measured IC50 of "O=c1c(O)cc([C@H]2Oc3cc(O)cc(O)c3C[C@H]2O)cc2c([C@H]3Oc4cc(O)cc(O)c4C[C@H]3O)cc(O)c(O)c12" , please.
> 20 µM

###

- TARGET: CYP2C9 (Homo sapiens)
- Sequence (P11712 whole entry): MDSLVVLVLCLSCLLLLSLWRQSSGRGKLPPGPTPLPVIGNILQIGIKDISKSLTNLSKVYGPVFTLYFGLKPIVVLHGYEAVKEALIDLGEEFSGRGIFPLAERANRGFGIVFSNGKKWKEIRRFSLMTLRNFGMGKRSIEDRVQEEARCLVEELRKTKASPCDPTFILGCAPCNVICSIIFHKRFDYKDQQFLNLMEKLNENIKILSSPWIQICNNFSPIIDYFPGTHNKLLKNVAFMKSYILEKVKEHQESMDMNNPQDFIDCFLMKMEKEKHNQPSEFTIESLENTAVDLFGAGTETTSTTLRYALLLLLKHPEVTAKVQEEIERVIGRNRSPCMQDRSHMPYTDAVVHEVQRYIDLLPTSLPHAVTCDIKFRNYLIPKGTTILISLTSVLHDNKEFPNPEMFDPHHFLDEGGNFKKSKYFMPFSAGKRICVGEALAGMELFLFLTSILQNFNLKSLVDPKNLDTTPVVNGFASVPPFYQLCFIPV
ASSAY_ENDPOINT: IC50

Tell me the measured IC50 of "O=c1c(O)cc([C@H]2Oc3cc(O)cc(O)c3C[C@H]2O)cc2c([C@H]3Oc4cc(O)cc(O)c4C[C@H]3O)cc(O)c(O)c12" , please.
> 20 µM

###

- TARGET: CYP2C19 (Homo sapiens)
- Sequence (P33261 whole entry): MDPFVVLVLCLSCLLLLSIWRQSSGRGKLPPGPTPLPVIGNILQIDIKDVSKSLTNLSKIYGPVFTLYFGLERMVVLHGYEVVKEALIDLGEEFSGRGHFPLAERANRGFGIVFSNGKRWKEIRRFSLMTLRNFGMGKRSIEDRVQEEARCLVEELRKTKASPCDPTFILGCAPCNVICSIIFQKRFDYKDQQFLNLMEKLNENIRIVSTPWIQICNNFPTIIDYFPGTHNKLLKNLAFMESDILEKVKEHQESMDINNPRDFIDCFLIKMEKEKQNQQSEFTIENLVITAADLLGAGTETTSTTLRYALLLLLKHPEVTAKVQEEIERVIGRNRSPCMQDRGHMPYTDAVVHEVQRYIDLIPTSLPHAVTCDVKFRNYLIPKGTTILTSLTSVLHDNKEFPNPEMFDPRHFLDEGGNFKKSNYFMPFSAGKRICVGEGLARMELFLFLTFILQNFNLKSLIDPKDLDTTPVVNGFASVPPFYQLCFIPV
ASSAY_ENDPOINT: IC50

Tell me the measured IC50 of O=c1c(O)cc([C@H]2Oc3cc(O)cc(O)c3C[C@H]2O)cc2c([C@H]3Oc4cc(O)cc(O)c4C[C@H]3O)cc(O)c(O)c12 [Theaflavin, theaflavin] , please.
> 20 µM

###

- TARGET: CYP3A4 (Homo sapiens, UniProt P08684)
- Sequence (P08684 whole entry): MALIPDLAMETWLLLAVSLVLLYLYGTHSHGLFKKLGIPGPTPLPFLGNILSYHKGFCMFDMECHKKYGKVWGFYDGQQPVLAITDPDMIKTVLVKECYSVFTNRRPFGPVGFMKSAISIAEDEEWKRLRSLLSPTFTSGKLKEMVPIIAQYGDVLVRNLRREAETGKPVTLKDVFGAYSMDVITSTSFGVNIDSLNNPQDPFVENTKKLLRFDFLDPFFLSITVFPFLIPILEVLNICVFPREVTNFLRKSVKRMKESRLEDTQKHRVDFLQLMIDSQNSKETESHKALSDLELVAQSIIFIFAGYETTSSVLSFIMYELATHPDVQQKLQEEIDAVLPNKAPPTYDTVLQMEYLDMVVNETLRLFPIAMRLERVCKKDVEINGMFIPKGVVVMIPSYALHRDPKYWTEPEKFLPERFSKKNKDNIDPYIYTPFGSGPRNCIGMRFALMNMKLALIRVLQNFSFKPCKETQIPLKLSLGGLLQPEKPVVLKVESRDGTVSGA
- ASSAY_REMARKS: Inhibition of CYP3A4 (testosterone, midazolam) in pooled human liver microsomes
ASSAY_ENDPOINT: IC50

Tell me the measured IC50 of O=c1c(O)cc([C@H]2Oc3cc(O)cc(O)c3C[C@H]2O)cc2c([C@H]3Oc4cc(O)cc(O)c4C[C@H]3O)cc(O)c(O)c12 [Theaflavin, theaflavin] , please.
> 20 µM

###

- TARGET: CYP2C8 (Homo sapiens)
- Sequence (P10632 1-490): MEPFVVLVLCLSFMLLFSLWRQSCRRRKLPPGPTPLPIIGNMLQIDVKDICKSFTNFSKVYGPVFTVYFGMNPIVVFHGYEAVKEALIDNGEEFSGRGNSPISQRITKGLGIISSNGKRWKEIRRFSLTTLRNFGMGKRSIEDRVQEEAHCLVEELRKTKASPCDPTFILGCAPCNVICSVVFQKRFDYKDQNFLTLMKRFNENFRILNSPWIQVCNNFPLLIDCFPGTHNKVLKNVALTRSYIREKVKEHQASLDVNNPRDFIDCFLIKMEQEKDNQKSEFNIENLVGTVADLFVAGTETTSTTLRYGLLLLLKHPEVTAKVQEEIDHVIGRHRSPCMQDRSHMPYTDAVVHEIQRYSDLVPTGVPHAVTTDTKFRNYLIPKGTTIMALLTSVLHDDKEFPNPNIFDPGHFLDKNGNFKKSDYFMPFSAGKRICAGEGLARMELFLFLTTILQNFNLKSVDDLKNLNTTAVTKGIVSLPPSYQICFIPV
ASSAY_ENDPOINT: IC50

Tell me the measured IC50 of "O=c1c(O)cc([C@H]2Oc3cc(O)cc(O)c3C[C@H]2O)cc2c([C@H]3Oc4cc(O)cc(O)c4C[C@H]3O)cc(O)c(O)c12" , please.
> 20 µM
